Target: B-Raf(V599E) kinase (Homo sapiens, UniProt P15056, V600E)
Sequence (P15056 with tags, fused parts or gaps V600E): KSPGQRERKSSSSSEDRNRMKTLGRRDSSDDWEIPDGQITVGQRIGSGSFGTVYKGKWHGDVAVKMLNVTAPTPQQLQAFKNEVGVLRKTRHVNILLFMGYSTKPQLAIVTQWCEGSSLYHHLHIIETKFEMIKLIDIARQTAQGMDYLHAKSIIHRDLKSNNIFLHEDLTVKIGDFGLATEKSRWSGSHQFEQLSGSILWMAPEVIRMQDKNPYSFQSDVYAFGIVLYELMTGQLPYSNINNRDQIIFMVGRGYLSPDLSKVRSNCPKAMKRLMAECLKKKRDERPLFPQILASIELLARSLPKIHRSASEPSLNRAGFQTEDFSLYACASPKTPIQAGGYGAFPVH
Assay: B-Raf(V599E) kinase assay B1 (construct 1, MEK1 substrate, coupled spectrophotometric)
Format: biochemical
Structures can show the parent of a compound that is named as a salt.
Recorded Endpoint: IC50 (nM)
Numbers only; they are read as nM.

Take a look at these entries with their results.
# Compound, Recorded Endpoint, Numeric Value
measured = [
    ("CC(C)(C)c1cc(NC(=O)Nc2cccc(C#N)c2)n(-c2ccc3c(c2)CCN3)n1", "IC50", 97),
    ("CC(C)(C)c1cc(NC(=O)Nc2ccc3c(c2)OCO3)n(-c2cccc(CC(=O)O)c2)n1", "IC50", 27),
    ("CCOC(=O)C1CCCN(C(=O)Cc2cccc(-n3nc(C(C)(C)C)cc3NC(=O)Nc3cccc(Cl)c3Cl)c2)C1 (stereo not drawn)", "IC50", 57),
    ("CC(C)(C)c1cc(NC(=O)Nc2cc(F)ccc2F)n(-c2cccc(C#N)c2)n1", "IC50", 12),
    ("Cn1c(=O)c(-c2cccc(NC(=O)Nc3cc(C(C)(C)C)nn3-c3ccc4c(c3)CC(C(N)=O)NC4)c2)cc2cncnc21 (stereo not drawn) [Example 185, dihydrochloride]", "IC50", 6.9),
]

Entry CC(C)(C)c1cc(NC(=O)NC2CCCCC2)n(-c2cc(CO)c3ccccc3c2)n1 — recorded IC50 = 22

###

Biological target: Abl kinase (Homo sapiens)
Sequence (P00519 229-512): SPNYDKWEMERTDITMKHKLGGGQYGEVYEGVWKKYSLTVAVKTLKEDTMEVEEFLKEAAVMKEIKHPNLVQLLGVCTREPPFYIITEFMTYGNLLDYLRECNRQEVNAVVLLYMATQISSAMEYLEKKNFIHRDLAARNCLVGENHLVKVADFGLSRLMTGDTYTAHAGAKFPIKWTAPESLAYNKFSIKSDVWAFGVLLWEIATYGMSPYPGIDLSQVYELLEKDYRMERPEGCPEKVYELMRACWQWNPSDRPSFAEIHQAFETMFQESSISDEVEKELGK
Experiment: Abl kinase assay A1 (pyruvate kinase/lactate dehydrogenase coupled, spectrophotometric)
Assay type: biochemical
Settings: Method A1; read-out: Abl Data (IC50)
Recorded Endpoint: log10 IC50 (log10 of the value in nM)
Response schema: value (number) is log10 of IC50 in units of nM.

# Molecule, Test Target, log10 IC50
measured = [
    ("CCOC(=O)Cc1cccc(-n2nc(C(C)(C)C)cc2NC(=O)Nc2cccc(Cl)c2Cl)c1", "Abl kinase (Homo sapiens)", 3.58),
]

Entry CC(C)(C)c1cc(NC(=O)Nc2cccc(C#N)c2)n(-c2ccc3c(c2)CNCC3)n1 — recorded log10 IC50 = 2.26

Entry CC(C)(C)c1cc(NC(=O)Nc2cccc(Oc3ccccc3)c2)n(-c2ccc3c(c2)CCNC3)n1 — recorded log10 IC50 = 2.08

Entry CC(C)(C)c1cc(NC(=O)Nc2ccc(Oc3ccccc3)cc2)n(-c2ccc3c(c2)CCNC3)n1 — recorded log10 IC50 = 2.40

Entry CC(C)(C)c1cc(NC(=O)Nc2cccc(Cl)c2Cl)n(-c2ccc3c(c2)C(N)CC3)n1 (stereo not shown) — recorded log10 IC50 = 2.38

Entry CC(C)(C)c1cc(NC(=O)Nc2cc(F)c(F)c(F)c2)n(-c2cc(CC(=O)NCC(O)CO)c3ccccc3c2)n1 (stereo not shown) — recorded log10 IC50 = 1.53

Entry CC(C)(C)c1cc(NC(=O)Nc2cccc(Cl)c2Cl)n(-c2cc(CC(=O)O)c3ccccc3c2)n1 — recorded log10 IC50 = 2.41

###

Target: B-Raf(V599E) kinase (Homo sapiens, UniProt P15056, V600E)
Test: B-Raf(V599E) kinase assay B1 (construct 1, MEK1 substrate, coupled spectrophotometric)
Type: biochemical
pIC50: −log10 of the molar value.
Hi, to clarify the labels: met covers pIC50 from 8 upward, not met covers anything below 8.

# Compound, Category
rows = [
    ("CCOC(=O)Cc1cc(-n2nc(C(C)(C)C)cc2NC(=O)Nc2ccc(Cl)cc2)cc2ccccc12 [Example 298]", "not met"),
    ("CC(C)(C)c1cc(NC(=O)Nc2cccc(Cl)c2Cl)n(-c2cccc(-c3cccnc3)c2)n1 [Example 276]", "met"),
    ("CC(C)(C)c1cc(NC(=O)Nc2ccccc2F)n(-c2cccc(CO)c2)n1 [Example 219]", "not met"),
    ("COc1cccc(-n2nc(C(C)(C)C)cc2NC(=O)Nc2ccc3c(c2)OCO3)c1 [Example 234]", "not met"),
    ("CNC(=O)c1cc(Oc2ccc(NC(=O)Nc3cc(C4CCCC4)nn3-c3ccc4[nH]c(=O)ccc4c3)cc2)ccn1 [Example 163]", "not met"),
    ("CC(C)(C)c1cc(NC(=O)Nc2ccc3c(c2)OCO3)n(-c2cccc(CCN)c2)n1 [Example 253]", "not met"),
    ("CC(C)(C)c1cc(NC(=O)Nc2cc(F)cc(F)c2F)n(-c2cc(CO)c3ccccc3c2)n1 [Example 65]", "met"),
    ("CC(C)(C)c1cc(NC(=O)Nc2ccccc2)n(-c2cc(CN)c3ccccc3c2)n1 [Example 295]", "not met"),
    ("CC(C)(C)c1cc(NC(=O)Nc2ccc3c(c2)OCO3)n(-c2cccc(CC(N)=O)c2)n1 [Example 395]", "not met"),
    ("CC(C)(C)c1cc(NC(=O)Nc2ccccc2)n(-c2ccc3ncccc3c2)n1 [Example 282]", "not met"),
]

Exam item: Threshold query (pIC50 >= 8) on CC(C)(C)c1cc(NC(=O)Nc2ccc(Cl)cc2)n(-c2cc(CO)c3ccccc3c2)n1 [Example 61]
Marked response: not met

###

Molecular target: KDR kinase (Homo sapiens, UniProt P35968, DEL940-989/E990V)
Sequence (P35968 with tags, fused parts or gaps DEL940-989/E990V): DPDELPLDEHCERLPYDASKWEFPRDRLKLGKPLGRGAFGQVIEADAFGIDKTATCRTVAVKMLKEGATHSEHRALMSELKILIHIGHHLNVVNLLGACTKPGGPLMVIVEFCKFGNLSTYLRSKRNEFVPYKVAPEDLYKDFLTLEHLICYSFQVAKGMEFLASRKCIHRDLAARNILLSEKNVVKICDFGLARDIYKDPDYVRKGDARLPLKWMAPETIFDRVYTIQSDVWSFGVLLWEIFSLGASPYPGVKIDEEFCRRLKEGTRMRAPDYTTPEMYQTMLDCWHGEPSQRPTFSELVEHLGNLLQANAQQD
Experiment: KDR kinase assay K1 (pyruvate kinase/lactate dehydrogenase coupled, spectrophotometric)
Format: biochemical
Details: Method K1; read-out: KDR Data (IC50)
Recorded measurements of pIC50, one per entry
To interpret pIC50, take it as minus log10 of a concentration measured in moles per litre.

# Compound, pIC50
data = [
    ("CC(C)(C)c1cc(NC(=O)Nc2cc(F)c(F)cc2F)n(-c2cccc(C(=N)N)c2)n1", 6.08),
    ("CC(C)(C)c1cc(NC(=O)Nc2cccc(Cl)c2Cl)n(-c2ccc3c(c2)NCC3)n1", 6.68),
    ("CC(C)(C)c1cc(NC(=O)Nc2cccc(Cl)c2Cl)n(-c2ccc3c(c2)CNCC3)n1", 6.72),
    ("CC(C)(C)c1cc(NC(=O)Nc2ccccc2)n(-c2ccc3c(c2)CCC(=O)N3)n1", 5.37),
    ("CC(C)(C)c1cc(NC(=O)Nc2cccc(Cl)c2Cl)n(-c2cc(CNC(=O)NS(C)(=O)=O)c3ccccc3c2)n1", 6.85),
    ("CC(C)(C)c1cc(NC(=O)Nc2cccc(Cl)c2Cl)n(-c2cccc(-c3cn[nH]c3)c2)n1", 7.28),
    ("CC(C)(C)c1cc(NC(=O)Nc2cc(F)c(F)cc2F)n(-c2cc(CNC(N)=O)c3ccccc3c2)n1", 6.57),
    ("CC(C)(C)c1cc(NC(=O)Nc2cccc(Cl)c2Cl)n(-c2ccc3c(c2)CCC(=O)N3)n1", 7.11),
    ("CC(C)(C)c1cc(NC(=O)Nc2cccc(Oc3cccnc3)c2)n(-c2ccc3c(c2)CC(C(=O)O)NC3)n1 (stereo not shown)", 7.64),
    ("CC(C)(C)c1cc(NC(=O)Nc2ccc(Oc3ccccc3)cc2)n(-c2ccc3c(c2)CCNC3)n1", 6.03),
]

Entry CC(C)(C)c1cc(NC(=O)Nc2cccc(Cl)c2Cl)n(-c2cccc(CN)c2)n1 — recorded pIC50 = 6.44

Entry CNC(=O)C1NCCc2cc(-n3nc(C(C)(C)C)cc3NC(=O)Nc3cccc(Cl)c3Cl)ccc21 (stereo not shown) — recorded pIC50 = 7.00

Entry COc1cccc(-n2nc(C(C)(C)C)cc2NC(=O)Nc2cccc(Cl)c2Cl)c1 — recorded pIC50 = 7.09

Entry CC(C)(C)c1cc(NC(=O)Nc2cccc(Cl)c2Cl)n(-c2ccc3c(c2)CN(C(=N)N)CC3)n1 — recorded pIC50 = 6.49

Entry CC(=O)N1CCc2ccc(-n3nc(C(C)(C)C)cc3NC(=O)Nc3cccc(Cl)c3Cl)cc2C1 — recorded pIC50 = 6.68

Entry CC(C)(C)c1cc(NC(=O)Nc2cccc(Cl)c2Cl)n(-c2cccc(CCO)c2)n1 — recorded pIC50 = 6.42

###

Biological target: KDR kinase (Homo sapiens, UniProt P35968, DEL940-989/E990V)
Test: KDR kinase assay K2 (as K1, 2.1 nM enzyme, 2 h pre-incubation, 1.0 mM ATP)
Type: biochemical
Conditions: Method K2; read-out: KDR Data (IC50)
Recorded measurements of pIC50, one per entry
To interpret pIC50, take it as minus log10 of a concentration measured in moles per litre.

Take a look at these entries with their results.
# Molecule, Numeric Value
data = [
    ("CC(C)(C)c1cc(NC(=O)Nc2cc(F)c(F)cc2F)n(-c2ccc3ncccc3c2)n1 [Example 53]", 6.31),
    ("CC(C)(C)c1cc(NC(=O)Nc2cccc3ccccc23)n(-c2ccc3c(c2)CCC(=O)N3)n1 [Example 198]", 5.89),
    ("CC(C(N)=O)c1cccc(-n2nc(C(C)(C)C)cc2NC(=O)Nc2cccc(Cl)c2Cl)c1 (centres unmarked) [Example 249]", 6.23),
]

Entry CC(C)(C)c1cc(NC(=O)Nc2cccc(Cl)c2Cl)n(-c2cccc(CC(=O)N3CCCC(C(=O)O)C3)c2)n1 (centres unmarked) [Example 398] — recorded pIC50 = 5.57

Entry CC(C)(C)c1cc(NC(=O)Nc2ccc(Cl)cc2)n(-c2cc(CNC(=O)NS(C)(=O)=O)c3ccccc3c2)n1 [Example 74] — recorded pIC50 = 5.60

Entry CC(C)(C)c1cc(NC(=O)Nc2cccc(F)c2F)n(-c2cccc(C#N)c2)n1 [Example 4] — recorded pIC50 = 6.51

Entry CC(C)(C)c1cc(NC(=O)Nc2cc(F)cc(F)c2F)n(-c2ccc3ncccc3c2)n1 [Example 54] — recorded pIC50 = 6.62

Entry CC(C)(C)c1cc(NC(=O)Nc2cccc(F)c2F)n(-c2ccc3ncccc3c2)n1 [Example 283] — recorded pIC50 = 6.36

Data provenance: patent US8163756B2
